# experimental_system: FLuc-C-HiBiT (firefly luciferase) (Photinus pyralis, UniProt P08659, form not given/L550V)
# Sequence (P08659 2-550 L550V, form open): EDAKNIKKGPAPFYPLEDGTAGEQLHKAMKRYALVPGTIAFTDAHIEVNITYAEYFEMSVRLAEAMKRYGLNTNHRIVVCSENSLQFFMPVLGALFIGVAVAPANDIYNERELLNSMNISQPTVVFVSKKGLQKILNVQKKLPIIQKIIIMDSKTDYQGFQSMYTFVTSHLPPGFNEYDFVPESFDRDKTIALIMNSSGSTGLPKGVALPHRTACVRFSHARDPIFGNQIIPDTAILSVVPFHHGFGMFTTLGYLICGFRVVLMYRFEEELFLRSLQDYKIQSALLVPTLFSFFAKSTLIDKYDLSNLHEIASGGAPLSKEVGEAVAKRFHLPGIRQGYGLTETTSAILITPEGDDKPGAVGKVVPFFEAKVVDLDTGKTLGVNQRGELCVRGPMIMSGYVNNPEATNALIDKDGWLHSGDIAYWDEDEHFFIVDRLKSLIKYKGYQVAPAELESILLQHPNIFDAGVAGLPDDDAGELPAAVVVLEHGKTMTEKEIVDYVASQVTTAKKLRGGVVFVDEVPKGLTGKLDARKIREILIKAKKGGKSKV
# run_description: SDR assay, FLuc-C-HiBiT
# applied_conditions: + ATP; SDR max. response; clade S
property_name: % Activity (max response, + ATP) (%)
Give bare numbers, in %.

COc1ccccc1CNC(=O)C1CCN(C(=O)c2ncn3c2COC(c2ccccc2)C3)CC1 (stereo not shown)
209.84
O=C(NCCC1=CCCCC1)C1CCN(C(=O)c2ncn3c2COC(c2ccc(Cl)cc2)C3)CC1 (stereo not shown)
23.50
Cc1ccc(C2Cn3cnc(C(=O)N4CCC(C(=O)NCc5ccccc5C)CC4)c3CO2)cc1 (stereo not shown)
110.64
CCOc1ccccc1CNC(=O)C1CCN(C(=O)c2ncn3c2COC(c2ccccc2)C3)CC1 (stereo not shown)
223.68
COc1ccc(NC(=O)C2CCN(C(=O)c3ncn4c3COC(c3ccccc3)C4)CC2)cc1 (stereo not shown)
319.33
CCOc1cccc(CNC(=O)C2CCN(C(=O)c3ncn4c3COC(c3ccccc3)C4)CC2)c1 (stereo not shown)
197.04
Cc1cccc(NC(=O)C2CCN(C(=O)c3ncn4c3COC(c3ccccc3)C4)CC2)c1 (stereo not shown)
372.05
O=C(NCc1ccccc1)C1CCN(C(=O)c2ncn3c2COC(c2ccccc2)C3)CC1 (stereo not shown)
344.70

Hi team, please reply with % Activity (max response, + ATP) for each item in this list.
1. Cc1ccccc1CNC(=O)C1CCN(C(=O)c2ncn3c2COC(c2ccccc2)C3)CC1 (stereo not shown)
2. O=C(NC1CCCCCCC1)C1CCN(C(=O)c2ncn3c2COC(c2ccc(F)cc2)C3)CC1 (stereo not shown)

370.72
34.91

Hi team, please reply with % Activity (max response, + ATP) for each item in this list.
1. O=C(NCc1ccncc1)C1CCN(C(=O)c2ncn3c2COC(c2ccccc2)C3)CC1 (stereo not shown)
2. O=C(Nc1ccc(F)c(F)c1)C1CCN(C(=O)c2ncn3c2COC(c2ccc(F)cc2)C3)CC1 (stereo not shown)
3. CC1CCC(NC(=O)C2CCN(C(=O)c3ncn4c3COC(c3ccccc3)C4)CC2)CC1 (stereo not shown)
4. O=C(NCC1CCCCC1)C1CCN(C(=O)c2ncn3c2COC(c2ccc(F)cc2)C3)CC1 (stereo not shown)
5. Cc1ccc(CNC(=O)C2CCN(C(=O)c3ncn4c3COC(c3ccc(Cl)cc3)C4)CC2)cc1 (stereo not shown)
6. O=C(NCCC1=CCCCC1)C1CCN(C(=O)c2ncn3c2COC(c2ccccc2)C3)CC1 (stereo not shown)

[375.34, 125.80, 387.83, 0.00, 22.50, 338.43]
